measurement description: in vitro
recorded conditions: dog
readout label: CC50

INSERT INTO assay_data (molecule, readout_label, measurement) VALUES
  ('O=c1c(N2CCCCCC2)cn(C2C=CC(O)C2)c(=O)n1C1C=CC(O)C1 (racemic) [(±)-4a]', 'CC50', '> 100 µM'),
  ('CC(C)(C)c1ccc(Oc2cn(C3C=CC(O)C3)c(=O)n(C3C=CC(O)C3)c2=O)cc1 (racemic) [(±)-11d]', 'CC50', '40.3 µM'),
  ('CCCCCCc1ccc(Nc2c[nH]c(=O)[nH]c2=O)cc1', 'CC50', '> 100 µM'),
  ('CCCCOc1ccc(Oc2cn(C3C=CC(O)C3)c(=O)[nH]c2=O)cc1 (racemic) [(±)-10b]', 'CC50', '> 100 µM'),
  ('Cc1cc(C)cc(Oc2cn(C3C=CC(O)C3)c(=O)n(C3C=CC(O)C3)c2=O)c1 (racemic) [(±)-11a]', 'CC50', '39.3 µM'),
  ('O=c1c(N2CCN(c3ccccc3)CC2)cn(C2C=CC(O)C2)c(=O)n1C1C=CC(O)C1 (racemic) [(±)-4b]', 'CC50', '> 100 µM'),
  ('O=c1[nH]c(=O)n(C2C=CC(O)C2)cc1N1CCCCCC1 (racemic) [(±)-3a]', 'CC50', '> 100 µM'),
  ('CCCCCCCc1ccc(Nc2cn(C3C=CC(O)C3)c(=O)n(C3C=CC(O)C3)c2=O)cc1 (racemic) [(±)-4f]', 'CC50', '> 100 µM'),
  ('O=c1c(Oc2ccc(Cl)cc2)cn(C2C=CC(O)C2)c(=O)n1C1C=CC(O)C1 (racemic) [(±)-11c]', 'CC50', '47.4 µM'),
  ('CC(C)(C)c1ccc(Nc2cn(C3C=CC(O)C3)c(=O)[nH]c2=O)cc1 (racemic) [(±)-3e]', 'CC50', '63 µM'),
  ('CC(C)c1ccc(Nc2cn(C3C=CC(O)C3)c(=O)[nH]c2=O)cc1 (racemic) [(±)-3g]', 'CC50', '> 100 µM'),
  ('O=c1[nH]c(=O)n(C2C=CC(O)C2)cc1Oc1ccc(Cl)cc1 (racemic) [(±)-10c]', 'CC50', '> 100 µM'),
  ('Cc1cc(C)cc(Oc2c[nH]c(=O)[nH]c2=O)c1', 'CC50', '> 100 µM'),
  ('CCCCCCCc1ccc(Nc2cn(C3C=CC(O)C3)c(=O)[nH]c2=O)cc1 (racemic) [(±)-3f]', 'CC50', '70.4 µM'),
  ('CC(C)(C)c1ccc(Nc2cn(C3C=CC(O)C3)c(=O)n(C3C=CC(O)C3)c2=O)cc1 (racemic) [(±)-4e]', 'CC50', '19.5 µM'),
  ('CCCCOc1ccc(Oc2c[nH]c(=O)[nH]c2=O)cc1', 'CC50', '> 100 µM'),
  ('O=c1[nH]cc(Oc2ccc(Cl)cc2)c(=O)[nH]1', 'CC50', '> 100 µM'),
  ('Cc1cc(C)cc(Oc2cn(C3C=CC(O)C3)c(=O)[nH]c2=O)c1 (racemic) [(±)-10a]', 'CC50', '33.8 µM'),
  ('CCCCCCc1ccc(Nc2cn(C3C=CC(O)C3)c(=O)[nH]c2=O)cc1 (racemic) [(±)-3d]', 'CC50', '30 µM'),
  ('O=c1[nH]cc(N2CCCCCC2)c(=O)[nH]1', 'CC50', '> 100 µM'),
  ('O=c1[nH]cc(N2CCN(c3ccccc3)CC2)c(=O)[nH]1', 'CC50', '> 100 µM'),
  ('CC(C)(C)c1ccc(Nc2c[nH]c(=O)[nH]c2=O)cc1', 'CC50', '> 100 µM'),
  ('CC(C)(C)c1ccc(Oc2c[nH]c(=O)[nH]c2=O)cc1', 'CC50', '> 100 µM'),
  ('CC(C)(C)c1ccc(Oc2cn(C3C=CC(O)C3)c(=O)[nH]c2=O)cc1 (racemic) [(±)-10d]', 'CC50', '> 100 µM'),
  ('O=c1[nH]c(=O)n(C2C=CC(O)C2)cc1N1CCN(c2ccccc2)CC1 (racemic) [(±)-3b]', 'CC50', '> 100 µM'),
  ('CCCCCCCOc1ccc(Nc2cn(C3C=CC(O)C3)c(=O)[nH]c2=O)cc1 (racemic) [(±)-3i]', 'CC50', '34 µM'),
  ('CCCCCCc1ccc(Nc2cn(C3C=CC(O)C3)c(=O)n(C3C=CC(O)C3)c2=O)cc1 (racemic) [(±)-4d]', 'CC50', '51.2 µM');
